This collection of values is drawn from PubChem BioAssay (NCI).

experiment_summary: NCI Yeast Anticancer Drug Screen. Data for the rad50EPP+ strain (AID 151);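 further: 0% = growth of vehicle-treated control cultures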
conditions_used: S. cerevisiae rad50 mutant strain, at 3.7 µM, active compounds read high
About 79,000 compounds went through this panel and 15% of them were active in at least one assay; those are over-represented in the sample as a whole.
reported_endpoint: growth inhibition (%)

CCCCS/C(=C(/C#N)C(N)=O)c1cc2c([nH]1)CCCC2 | 13
CCCCOc1ccc2nc(C)cc(N=[N+]=[N-])c2c1 | -3
CC1(C)OC(=O)C(=Cc2ccc([N+](=O)[O-])s2)C(=O)O1 | -20
CCCCCCCCSC1=C(Cl)C(=O)C(OC)=C(OC)C1=O | -44
CCN(CC)CCCNc1ccc([N+](=O)[O-])c2nc3ccc(OC)cc3c(NCCCN(CC)CC)c12 | 3
CCCCCCCCCC(=O)N(CCC)CCC | 9
O=P(C(=S)Nc1c(Cl)cccc1Cl)(c1ccccc1)c1ccccc1 | 8
CN(C)N=Nc1ccc(N(C)C)cc1 | 8
c1ccc2nc3c(nc2c1)sc1ccccc13 | 92
CC(=O)N1C=Cc2c(c(C)c3c([nH]c4ccccc43)c2C)C1 | 74
COc1cc(OC)c(CSCC(NC(=O)OCC2c3ccccc3-c3ccccc32)C(=O)O)c(OC)c1 (stereo unspecified) | -2

====

# key: entry, value: growth inhibition
experiment_summary: NCI Yeast Anticancer Drug Screen. Data for the bub3 strain (AID 167)
conditions_used: S. cerevisiae bub3 mutant strain, at 3.7 µM, active compounds read high
About 79,000 compounds went through this panel and 15% of them were active in at least one assay; those are over-represented in the sample as a whole.
reported_endpoint: growth inhibition (%)

CCCCCCC=C(C(=O)OCC)C(=O)OCC | 0
CCN(CC)CCNc1ccc2ncn3c4ccc(O)cc4c(=O)c1c23 | -9
OC1(c2ccccc2)C2CC=CC2C1(c1ccccc1)c1ccccc1 (stereo not drawn) | 2
OC(Cc1cccc2ccccc12)CN1CCC(c2ccccc2)CC1 (stereo not drawn) | 41
CC1=CN2C(c3ccccc3)=NON(c3ccc(C)cn3)C2C=C1 (stereo not drawn) | -2
CCN(CC)CC(=O)c1ccc2cc(Cl)c3ccccc3c2c1 | 3
BrC1C2CCC3OC3C12 (stereo not drawn) | -5
COC1/C=C\C=C(/C)C(=O)NC2=CC(=O)C(=O)C(=C2O)CC(C)CC(OC)C(O)C(C)/C=C(\C)C1OC(N)=O (stereo not drawn) | 51
CN(CCOc1ccc(Cl)cc1)CCOc1ccc(Cl)cc1 | 23
CC(=O)Oc1ccc2c(c1)Cc1cc(N3C(=O)C=CC3=O)ccc1-2 | 1
OC(CC(O)(C(F)(F)F)C(F)(F)F)c1ccc(C(O)CC(O)(C(F)(F)F)C(F)(F)F)cc1 (stereo not drawn) | 37
COc1cccc(/C=C2\S/C(=N/Nc3nc(-c4ccc([N+](=O)[O-])cc4)cs3)NC2=O)c1O | 33
CCN1CCC(O)(c2ccc(Oc3ccc(Cl)cc3)cc2)C(C(=O)c2ccc(Oc3ccc(Cl)cc3)cc2)C1 (stereo not drawn) | 39
CCOP(=O)(OCC)/C(C#N)=C/c1cccc(Oc2ccccc2)c1 | -19
CN(C)CCNC(=Cc1ccc2ccccc2[n+]1C)NCCN(C)C | -3
CCCCCCCCSC1=C(Cl)C(=O)C(OC)=C(OC)C1=O | -30
CCC(=O)C1=C(O)c2cc(OC)ccc2CC1C(=O)OC (stereo not drawn) | -8
O=C(Cc1ccccc1)NNc1nc(NNC(=O)c2ccncc2)nc(Nc2ccc([N+](=O)[O-])cc2)n1 | -4
CCCN=Cc1cc(Cc2ccc(O)c(C=NCCC)c2)ccc1O | 95
CCOc1ccc2nc3ccccc3c(N)c2c1 | -2
CN(C)CCCn1c2c3ccccc3ccc2c2oc(=O)c3ccccc3c21 | 11
Cc1c2cc[n+](CCO)cc2c(C)c2c1[nH]c1ccc(O)cc12 | 9
COc1ccc(C(OCC2OC(n3cnc4c(=O)n(Cc5ccccc5[N+](=O)[O-])nnc43)C(O)C2O)(c2ccccc2)c2ccc(OC)cc2)cc1 (stereo not drawn) | 26
NC(N)=NS(=O)(=O)c1ccc(Nc2c3ccccc3nc3c(C(=O)NC(CO)(CO)CO)cccc23)cc1 | 2
Cc1cccc2c(NCCCN(C)C)c3c([N+](=O)[O-])ccc(C)c3nc12 | -6
O=[N+]([O-])c1ccc(/C=C\c2ccc3c(c2)OCO3)c([N+](=O)[O-])c1 | -7
O=C1NC(c2cccc(OCc3ccccc3)c2)Nc2ccccc21 (stereo not drawn) | 14
CC(C)OC(=O)NNc1c(Cl)cc(Cl)cc1Cl | 38
O=C(Nc1ccc(Cl)cc1)c1cc2cc(N=Nc3ccccc3Cl)ccc2oc1=O | -19
O=C(O)C1CCCCC1c1c2ccc(=O)cc-2oc2cc(O)ccc12 (stereo not drawn) | 22
CCC(OC(C)=O)C1CC(C(C)C)CCC1C (stereo not drawn) | -1
O=S(=O)(NC1CCCC(c2ccccc2)C1)c1ccccc1 (stereo not drawn) | -1
O=C1CC(C(O)(C(F)(F)F)C(F)(F)Cl)CCC1C(O)(C(F)(F)F)C(F)(F)Cl (stereo not drawn) | 45
COc1cc2oc3ccccc3c(=O)c2cc1CSc1ccccc1N | 2
CCCNCC(=O)O[C@]1(CC)C(=O)OCc2c1cc1n(c2=O)Cc2cc3ccccc3nc2-1 | 12
CNC(=O)OCc1c2ccncc2c(C)c2c1[nH]c1ccccc12 | -56
O=S1(=O)CCC2=CC(C(F)(F)F)=CC(C(F)(F)F)=CN21 | 52
CCC(C)(C)c1ccc(Oc2ccccc2)c(N)c1 | -6
O=C(O)c1ccc2cc(Cl)c3ccccc3c2c1 | 1
CC(C(=O)N1C(=O)N(C(=O)C(C)C(O)c2ccccc2)C2CCCCC21)C(O)c1ccccc1 (stereo not drawn) | -1
Fc1cc(F)c(F)c(S)c1F | -4
O=[N+]([O-])[O][Sn]([O][Sn]([O][N+](=O)[O-])([c]1ccccc1)[c]1ccccc1)([c]1ccccc1)[c]1ccccc1 | -4
O=[N+]([O-])c1ccc(S(=O)(=O)Cc2ccccc2)c([N+](=O)[O-])c1 | 6

====

experiment_summary: NCI Yeast Anticancer Drug Screen. Data for the CLN2oe strain (AID 163);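 further: 0% = growth of vehicle-only control cultures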
conditions_used: S. cerevisiae CLN2oe strain, at 1.2 µM, active compounds read high
The panel holds about 79,000 compounds, 15% with a hit somewhere; the sample as a whole holds those more often.
reported_endpoint: growth inhibition (%)

COc1ccccc1/C=C\C(=O)C1COCN1 (stereo unspecified) | 2
CCCCCCC1OCC(O)C(OCCCC)O1 (stereo unspecified) | -5
CCCCCc1c(CCCC)c(=O)[nH]c2cc(CNCC(OC)OC)ccc12 | 0
CC1CN(/N=C\c2ccc([N+](=O)[O-])o2)C(=O)O1 (stereo unspecified) | -7
COC(=O)c1cnc(Cl)c([N+](=O)[O-])c1 | 0
Cc1oc2ccccc2c(=O)c1Cn1nnc2ccccc21 | 0
O=NC1c2cccc3cccc(c23)C1N=O (stereo unspecified) | 4
COc1ccc2nc(CCc3ccccc3)ccc2c1 | -12
O=[N+]([O-])[O][Sn]([O][Sn]([O][N+](=O)[O-])([c]1ccccc1)[c]1ccccc1)([c]1ccccc1)[c]1ccccc1 | -32
CC(=O)N1C=Cc2c(c(C)c3c([nH]c4ccccc43)c2C)C1 | 31
COC(=O)c1ccccc1N=NNc1cccc(SC)c1 | -17
CCO/C=C1\SC(=S)N(c2ccc(OCC)cc2)C1=O | -8
CCN1CCC(O)(c2ccc(Oc3ccc(Cl)cc3)cc2)C(C(=O)c2ccc(Oc3ccc(Cl)cc3)cc2)C1 (stereo unspecified) | 28
NC(CS)C(=O)NCCNc1ccc(NCCNC(=O)C(N)CS)c2c1C(=O)c1c(O)ccc(O)c1C2=O (stereo unspecified) | -4
COc1ccc(C(C)c2cc3c(cc2OC(C)O)OCO3)cc1 (stereo unspecified) | 4
CC(C)C(c1ccccc1)c1ccccc1 | -5
CCC[CH2][Sn]([CH2]CCC)([CH2]CCC)/[C](=C/[Si](C)(C)c1ccccc1)c1ccc2c(c1)OCO2 | -5
O=C(O)c1ccc2cc(Cl)c3ccccc3c2c1 | -10
O=C(O)CNC(c1ccccc1)(c1ccccc1)c1ccccc1 | -14
C1=CCN([B-](c2ccccc2)[C+]2CCCCC2)C=C1 | -6
COC(=O)C(=O)CC(=O)c1cccc(OC)c1 | -6
O=C1C(/C=C/c2ccc(Cl)cc2)=NNC2N1N=C1NC(=O)C3(NN12)c1ccccc1-c1ccccc13 (stereo unspecified) | -3
CC(C)OC(=O)NNc1cccc(Cl)c1 | -7
CNCC(C)CNC | 15
O=C(O)C(=Cc1ccc(-c2ccccc2)cc1)C(=O)O | 5
O=C1C(=O)c2cccc([N+](=O)[O-])c2-c2ccccc21 | -6
CNC(=O)OCc1c2ccncc2c(C)c2c1[nH]c1ccccc12 | 6
O=C(O)c1cc2c(cc1S(=O)(=O)O)C1C(C3C2C2(Cl)C(Cl)=C(Cl)C3(Cl)C2(Cl)Cl)C2(Cl)C(Cl)=C(Cl)C1(Cl)C2(Cl)Cl (stereo unspecified) | -4
CCC1(O)C(=O)OCc2c1cc1n(c2=O)Cc2cc3c(N)cccc3nc2-1 (stereo unspecified) | -8
C=C(C(=O)OC)N1C(=O)CC(C)C1=O (stereo unspecified) | -3
CCCCS(=O)(=O)Nc1ccc(Nc2c3ccccc3nc3ccccc23)c(OC)c1 | 10
OC(CC(O)(C(F)(F)F)C(F)(F)F)c1ccc(C(O)CC(O)(C(F)(F)F)C(F)(F)F)cc1 (stereo unspecified) | 3
CC(=O)NC(c1nc2cc(C)c(C)cc2[nH]1)c1nc2cc(C)c(C)cc2[nH]1 | -11
CCC(C)(C)c1ccc(Oc2ccccc2)c(N)c1 | -22
O=[N+]([O-])c1cc(Cl)ccc1S(=O)(=O)c1ccc(Cl)cc1[N+](=O)[O-] | -2
O=C1c2ccccc2C(=O)c2c(O)c(NCCNCCO)cc(O)c21 | 21
CCS(=O)(=O)Nc1ccc(Nc2c3ccccc3nc3ccccc23)c(OC)c1 | -8
CC(C)(N=Nc1ccc(Cl)cc1)[N+](=O)[O-] | 14
CCOC(=O)/C(=C\c1cccc(C)c1)C(C)=O | 11
O=C1NC(c2cccc(OCc3ccccc3)c2)Nc2ccccc21 (stereo unspecified) | -4
CCOC(=O)/C(=C/c1cccc(Cl)c1)N(CC)CC | 8
Cc1ccc(S(=O)(=O)Nc2cccc3cccnc23)cc1 | 15
CCOc1ccc2nc3ccccc3c(N)c2c1 | 7
Oc1ccc(C2(c3ccc(O)cc3)CCCC2)cc1 | -12
CC(=O)/C=C/c1cccc([N+](=O)[O-])c1 | -2
O=P(C(=S)Nc1c(Cl)cccc1Cl)(c1ccccc1)c1ccccc1 | 8
